TEST_DETAILS: amyloid nucleation score (Sup35N fusion, yeast selection) (log enrichment); library NNK2; higher = more nucleation; inactive = no reads after selection;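 note: zero at mode of non-aggregating sequences after 7 days selection at 30°C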
Would you mind classing the entries by amyloid nucleation score? Ranges: band 1: < 0.2; band 2: ≥ 0.2 and < 1; band 3: ≥ 1

QUERY_SEQUENCE	CLASS_ASSIGNMENT
STVPRVSLLLAPCQVIVAWE	band 3
CDSKVENIWVDLNEMYFFCN	band 3
KKSRNPHGKFTWTFGFVKKL	band 1
RAANYCGLKQAWSGFKRCVA	band 2
IKHKLWRAYYCSESTLSVLS	band 1
MLRLFQYFLGTNFWGHQGFS	band 1
GVGGRVWTC	band 1
SGRTGIGWYLFCRPYPIVYA	band 2
LGLCEVNMFNIRHFTLRSCY	band 2
VWVPQSVIRSLHLPSN	band 1
HFMFVSNRVGWVGLLQNYSR	band 3
SLFQCNGSCVIYSYGILLYL	band 3
MIVNYFWIRCAPLFWQAIPS	band 3
AYRSDCIRHGGPFAGYNICI	band 1
VWYITIYIWGMRRLIAWRMS	band 2
RVEEWASFTTVIIMRMLNPG	band 2
LTEVVMAILFSDDSRYIFCG	band 3
FSLGQKLLFCFCEVCWLNVA	band 3
FSRVESEIHSHWPW	band 3
SVQFRMIQDLRVAADGRPRA	band 3
MSVLSMVFSGFDPMERFGEL	band 2
LGIYIVGTNVSSSWLFLCNR	band 2
SDVRVLNDQKSGVFC	band 2
YGFCAFTHSC	band 1
MLVWTNMFSTLYDISWKAPL	band 1
GDYHSYGVVRSYFCATPSSG	band 2

====

TEST_DETAILS: amyloid nucleation score (Sup35N fusion, yeast selection) (log enrichment); library NNK3; higher = more nucleation; inactive = no reads after selection
REPORTED_METRIC: amyloid nucleation score

SUBSTANCE	REPORTED_METRIC	RECORDED_MEASUREMENT
SYWYACGKYADNSMER	amyloid nucleation score	inactive
YYRGITMCT	amyloid nucleation score	inactive
DASSDRVSVYSAYK	amyloid nucleation score	inactive
CYLISILPLGLFIDSLAWVT	amyloid nucleation score	inactive
LNYTEASYSLTGHTISISTV	amyloid nucleation score	-0.156
CRRVMVILMH	amyloid nucleation score	inactive
NVRSNFLVADVVVFVRKIVR	amyloid nucleation score	2.42
YDRVSMGRFIKR	amyloid nucleation score	inactive
VTVLQM	amyloid nucleation score	inactive
HRIVHDSVLKRVFDYFR	amyloid nucleation score	inactive

====

TEST_DETAILS: amyloid nucleation score (Sup35N fusion, yeast selection) (log enrichment); library NNK2; higher = more nucleation; inactive = no reads after selection
In this section we review reported amyloid nucleation score values for a set of sequences.
REPORTED_METRIC: amyloid nucleation score

QUERY_SEQUENCE	RECORDED_MEASUREMENT
WYMKILFGKRFSFGGVVSIF	3.74
PRKPRNVDSL	0.134
SFVCWITVCNFRVSQ	3.21
LRSWEGLSQAWRPCCVILHN	0.48
FFTRRLNSNWMCFLADNCYR	-0.439
ASVKSILVYGGCTKWFFPHF	4.11
SGWWTKHRTMLKYYTLFAMG	-0.449
FVRGDSGFTLNAAR	-0.288

====

TEST_DETAILS: amyloid nucleation score (Sup35N fusion, yeast selection) (log enrichment); library NNK1; higher = more nucleation; inactive = no reads after selection

SUBSTANCE	amyloid nucleation score
LDVFPNYASRCTWAVDASFL	-0.703
YYWRPIQVVCLLASCKRTWR	7.75
CFFILW	-0.066
DNRSFFWNL	2.22
NLVYTTDT	0.467
DRWDFMQLNCIHLEA	0.885
IFTLGVALFSIVM	4.24
YGLIGM	0.24
QAHLNLVSRIIIMWS	0.067
GMSGYKKFCSGIWWSLNQCS	0.408
LYGFANYFRFMRYWTRNVVP	0.124
TGWLWYQHRWSDTWLPGTMR	2.04
RLLSLLINMTVVVWLSRKT	2.43
GLFTVNDV	0.374
RPGVGAVRSHSAGRMGGYGD	-0.057
LLDSNHSVLYFIFGLVT	1.27
YREDKHCIHCWGVMGV	-2.16
QYRRVSILSSVLLYCPNYCQ	-1.38

====

TEST_DETAILS: amyloid nucleation score (Sup35N fusion, yeast selection) (log enrichment); library NNK2; higher = more nucleation; inactive = no reads after selection

SUBSTANCE	amyloid nucleation score
NCGLWNISMCPGDNLSSWDG	7.46
SHGELEVAMPDTGNI	-0.378
CYHFCYYVLSLVWGQNPVIK	0.108
ELSHSLSIKATVEGS	0.279
SSVISLNILFFMGEPENSLL	6.42
ECNSSALHNWKY	0.088
LNDHNFLCPLTYKVRRLYNN	-1.53
FKRDLMLYFCCSWCRKVCVY	-0.432
SMASGILCDAAYNACSQGCG	0.632
VICGLTPDRDAHMYLTIFWL	0.578
PDLMLPDRLDIERCLQVWD	0.049
TGFNRCGSRWWLLVSNVKLV	-0.388
CLLWVAQYVQAMEGVALSVG	1.5
MRRRMQSWANRSLSTGWGMF	-0.091
NCFYALYPSQDWRMTKLELS	-0.106
LKLYDKAR	0.213
MLDYFGLWSWARSSNYLEFK	-1.09
NISCNSGSPGSNMTGCQESS	0.767
LNISFSDSLSRLVV	-0.935
VREGSNRVSRFHNGWHQSGL	-0.555
CLSDNC	-0.13
VFNWVRISPR	8.81
FCCHHCITGITEKAN	0.674
IIVSDSPTLQRS	0.163
MLVEMYLFVNLCLYMRMSFR	0.018
LATNNVS	0.979
CPRVSVSSVLMGKLFL	-1.15
FAPCNCSCVK	0.827
RTCTFVCRGM	2.86

====

TEST_DETAILS: amyloid nucleation score (Sup35N fusion, yeast selection) (log enrichment); library NNK3; higher = more nucleation; inactive = no reads after selection

SUBSTANCE	amyloid nucleation score
LDLSSYVHSTLEPGQWKRSR	inactive
FERDVFDQYEVVQWGARGDG	inactive
VTMFLGQWCSHSIVAMCIEG	inactive
LVFRIN	inactive
LNQSDRCKVCWYWLGHT	inactive
SPYNPHAFVTYSFCVYKD	1.88
RLRSNDSDLNRIAAIKVRGI	inactive
KRGMSHVSVCFIMRCFLYID	inactive
VGESDKLHFAH	inactive
SSTCTDL	inactive
LKNGLYYHHYFTFLMAYIHQ	inactive
SSYSVVFEQ	inactive
TQRVGERGIIMYHPWIGYYV	0.189
LGNSPVHST	inactive
FYDAWRIFLSYFRLSLLTNV	inactive
SYWLQSPYDTESMSGFLLQI	inactive
NRIGSKTCKFFMALGM	inactive
LGSAGYSSQGLWCLVLRVPL	inactive
PSLYDLKRSCWGSWMAYEWK	inactive
YSSGGYLTRVRRKGSMYRAL	inactive
LSCHETCLVISGLCMLMMRL	inactive
RIEAFLAP	1.12
LFMCMIFDCDIRIVNSVGCI	1.43
YLEEARQYNLQRYWKDLKVL	inactive
NTSYSRMVCSKG	inactive
SIWEHRSNS	inactive
NVRVYSFQMTVECKELLDSQ	inactive
FDTYTLSNTF	inactive
STLNGGSWVMIYAEDLTS	inactive
VLTSYGRNRH	inactive
WVFRFRNQ	inactive
GGNVCRGVKIIVMWAMIFVM	inactive
NNCSRICM	inactive
GRGYSSSTLWVLGWFD	inactive
RLLGTRSYTIWACYTCAVFM	2.15
KGFRAVCWICIYRDEY	-0.533
NGKWKGWSS	inactive

====

Entries and their measured amyloid nucleation score follow.
TEST_DETAILS: amyloid nucleation score (Sup35N fusion, yeast selection) (log enrichment); library NNK1; higher = more nucleation; inactive = no reads after selection

SUBSTANCE	amyloid nucleation score
LVMCFVMGMLNLDAGLIMRM	0.425
IFVALRRD	-1.29
GEERHAAYTNWFFLRCLLTY	-0.046
PVGVKGVQMVLS	-0.226
VLCAGLPWYTELVRFSYWAD	-0.642
RTMKRSLSCVHCLLCLSPCQ	-0.102
YAEVGGLYSTSGVRRKNGGR	0.346
TVIEIKL	1.28
ESTAQSEV	-0.237

====

TEST_DETAILS: amyloid nucleation score (Sup35N fusion, yeast selection) (log enrichment); library NNK3; higher = more nucleation; inactive = no reads after selection

QUERY_SEQUENCE	amyloid nucleation score
SLGLKIVVLESYGVSPVCCH	inactive
RAIGLGAFGIRRGGTRKWNE	-1.06
FRLVGNIRTFYGYR	inactive
LSGPMRYELCMRLGSGLNYE	inactive
DHYAWIFTDRLWYCRCNTVT	inactive
WDFFIGLLLYSIL	inactive
FKVNLDVP	-0.263
CIPLLFWVWSSNVCVRLKLQ	inactive
SRPLEMVLLLSWWIMSRKIP	inactive
